organism: Rattus norvegicus; test: Open TG-GATES - Regimen: Single; assay type: toxicity, organism-based, Sprague-Dawley; set-up: regimen Single, gender Male, age 6 weeks; settings: in vivo, po, 0 mg/kg, 3 h, tissue Blood, route gavage, dose level Control
Collected Ht values appear next to each entry.
measure name: Ht (%)

# compound, measure name, readout units, numeric result
measured = [
    ("CCc1oc2ccccc2c1C(=O)c1cc(Br)c(O)c(Br)c1", "Ht", "%", 40.9),
    ("CN(C)C(=N)N=C(N)N", "Ht", "%", 39.6),
    ("CC(C)N(CCC(C(N)=O)(c1ccccc1)c1ccccn1)C(C)C (stereo not drawn) [DISOPYRAMIDE]", "Ht", "%", 41.1),
]
